- measuredOn: human cathepsin K (Homo sapiens, UniProt P43235)
- Construct: The proform of cathepsin K was converted to mature cathepsin K by brief exposure to pH 4; made in house; host or cells: baculovirus; Trichoplusia ni High Five cells (virus raised in Sf-9)
- Sequence (P43235 115-329): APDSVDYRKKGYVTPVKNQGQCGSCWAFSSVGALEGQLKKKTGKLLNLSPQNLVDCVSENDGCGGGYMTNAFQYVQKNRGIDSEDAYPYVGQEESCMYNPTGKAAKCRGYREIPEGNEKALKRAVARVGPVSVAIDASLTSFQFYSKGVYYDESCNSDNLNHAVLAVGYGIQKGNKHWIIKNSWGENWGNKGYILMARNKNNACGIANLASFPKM
- assay: cathepsin K inhibition assay, fluorogenic substrate Cbz-Phe-Arg-AMC, progress curve method
- Format: biochemical
- measurementSetup: Table 1; human recombinant enzyme, pH 5.5, 30° C., 10 μM substrate; read-out: hcatK Ki
List of Ki values.
observedProperty: Ki

compound	measuredOn	reported
CN(C)S(=O)(=O)NCCCC[C@H](NC(=O)OCC1(Cc2ccc(F)cc2)CCC1)C(=O)C(=O)NCc1cccnc1 [Example 16]	human cathepsin K (Homo sapiens, UniProt P43235)	10 to 100 nM
C[C@@H](NC(=O)C(=O)[C@H](CCCCNC(=O)N1CCOCC1)NC(=O)OCC1(Cc2cccnc2)CCC1)c1ccccc1 [Example 12]	human cathepsin K (Homo sapiens, UniProt P43235)	100 to 1000 nM
CCCC[C@H](NC(=O)OCC1(Cc2ccc(F)cc2)CCC1)C(=O)C(=O)Nc1ccn[nH]1 [Example 14]	human cathepsin K (Homo sapiens, UniProt P43235)	< 1 nM
CCCC[C@H](NC(=O)OC1(Cc2ccccc2)CCCC1)C(=O)C(=O)N[C@H](C)c1ccccc1 [Example 2]	human cathepsin K (Homo sapiens, UniProt P43235)	10 to 100 nM
CCCC[C@H](NC(=O)OC1(Cc2ccccc2)CCC1)C(=O)C(=O)N[C@H](C)c1ccccc1 [Example 1]	human cathepsin K (Homo sapiens, UniProt P43235)	100 to 1000 nM
CCCC[C@H](NC(=O)OCC1(Cc2ccccc2)CCCC1)C(=O)C(=O)N[C@H](C)c1ccccc1 [Example 8]	human cathepsin K (Homo sapiens, UniProt P43235)	10 to 100 nM
CCCC[C@H](NC(=O)OCC1(Cc2ccc(F)cc2)CCC1)C(=O)C(=O)Nc1n[nH]c2cc(Cl)ccc12 [Example 15]	human cathepsin K (Homo sapiens, UniProt P43235)	< 1 nM
CCCC[C@H](NC(=O)OCC1(CCCc2ccccc2)CCC1)C(=O)C(=O)N[C@H](C)c1ccccc1 [Example 7]	human cathepsin K (Homo sapiens, UniProt P43235)	10 to 100 nM
CCCC[C@H](NC(=O)OCC1(CCCOc2ccnc(Cl)n2)CCC1)C(=O)C(=O)N[C@H](C)c1ccccc1 [Example 38]	human cathepsin K (Homo sapiens, UniProt P43235)	> 1000 nM
CCCCC(NC(=O)OCC1(COc2nnc(C)cc2-c2ccccc2)CCC1)C(=O)C(=O)N[C@H](C)c1ccccc1 (stereo in doubt) [Example 32]	human cathepsin K (Homo sapiens, UniProt P43235)	10 to 100 nM
CCCC[C@H](NC(=O)OCC1(CSc2nc3ccccc3o2)CCC1)C(=O)C(=O)N[C@H](C)c1ccccc1 [Example 24]	human cathepsin K (Homo sapiens, UniProt P43235)	10 to 100 nM
CCCC[C@H](NC(=O)OCC1(Cc2ccccc2)CCC1)C(=O)C(=O)N[C@H](C)c1ccccc1 [Example 5]	human cathepsin K (Homo sapiens, UniProt P43235)	1 to 10 nM
CCCC[C@H](NC(=O)OCC1(COc2ccnc(N3CCN(C)CC3)n2)CCC1)C(=O)C(=O)N[C@H](C)c1ccccc1 [Example 21]	human cathepsin K (Homo sapiens, UniProt P43235)	10 to 100 nM
CCCC[C@H](NC(=O)OCC1(CSc2nccn2-c2ccccc2)CCC1)C(=O)C(=O)N[C@H](C)c1ccccc1 [Example 28]	human cathepsin K (Homo sapiens, UniProt P43235)	10 to 100 nM
